# Test system: U2OS
# Run Description: Multiplex assay against U2OS
# Assay type: toxicity, cell-based
# Experimental Context: human, 24 h, 10 µM, compound concentration 10 uM, replicate 2
Measured Population Normal (%), listed per entry.
Observed Property: Population Normal (%)

compound=Cc1ccc(NC(=O)Nc2cc(C(F)(F)F)ccc2F)cc1Nc1ccc2c(c1)NC(=O)/C2=C\c1ccc[nH]1 value_measured=91%
compound=CCOc1ccn(-c2ccc(F)cc2)c(=O)c1C(=O)Nc1ccc(Oc2ccnc(N)c2Cl)c(F)c1 value_measured=91%
compound=CC(/C=C1\SC(=S)N(CCCC(=O)Nc2ccc(C(=O)O)c(O)c2)C1=O)=C\c1ccccc1 value_measured=95%
compound=CCOC(=O)CCNc1cc(N2CCc3ccccc3CC2)nc(-c2ccccn2)n1 value_measured=92%
compound="CCCCCNC(=N)N/N=C/c1c[nH]c2ccc(OC)cc12.O=C(O)/C=C\\C(=O)O [TEGASEROD MALEATE]" value_measured=60%
compound=Cl.NC[C@@H]1O[C@H](C23CC4CC(CC(C4)C2)C3)Cc2c1ccc(O)c2O value_measured=81%
compound=CCCCN(CC)c1nc(C)nc2c1c(C)cn2-c1c(C)cc(C)cc1C.Cl value_measured=95%

* * *

# Tested on: U2OS
# Run Description: Incucyte cell viability with U2OS; note: filed as whole numbers so only -1 and 0 and 1 occur
# Assay type: toxicity, cell-based
# Experimental Context: human, 0 h, 10 µM, compound concentration 10 uM, replicate number 1, timepoint 0 hours
Listing: Growth Rate of selected compounds
Observed Property: Growth Rate

compound=CCOC(=O)CCNc1cc(N2CCc3ccccc3CC2)nc(-c2ccccn2)n1 observed_property="Growth Rate" value_measured=0
compound=COc1ccc(CCc2nc3cc(-c4c(C)noc4C)ccc3n2C[C@H](C)N2CCOCC2)cc1Cl observed_property="Growth Rate" value_measured=1
compound=NC(=O)[C@@H]1CCCN1C(=O)[C@H](Cc1cnc[nH]1)NC(=O)[C@@H]1CCC(=O)N1 observed_property="Growth Rate" value_measured=0
compound=Cl.O=C(Cc1ccc(Cl)c(Cl)c1)N1CCCC[C@H]1CN1CCCC1 observed_property="Growth Rate" value_measured=0
compound="CCC(=O)NC1Cc2ccccc2C(c2ccccc2)C1 (configuration not stated)" observed_property="Growth Rate" value_measured=0
compound=CC1=C2C[C@H]3[C@@H](CC=C4C[C@@H](O)CC[C@@]43C)[C@@H]2CC[C@]12O[C@@H]1C[C@H](C)CN[C@H]1[C@H]2C observed_property="Growth Rate" value_measured=0
compound=COc1cc(Nc2ccnc3ccc(Br)cc23)cc(OC)c1OC observed_property="Growth Rate" value_measured=0

* * *

# Tested on: HEK-293T
# Run Description: Incucyte cell viability with HEK293T; note: filed as whole numbers so only -1 and 0 and 1 occur
# Assay type: toxicity, cell-based
# Experimental Context: human, 18 h, 10 µM, compound concentration 10 uM, replicate number 2, timepoint 18 hours
# Growth Rate per entry
Observed Property: Growth Rate

smiles_entry=COc1cc(C#N)ccc1S(=O)(=O)Nc1ccc2c(c1)cc(C)c(=O)n2C tested_target=HEK-293T observed_property="Growth Rate" value_measured=1
smiles_entry=CCOC(=O)c1ncn2c1CN(C)C(=O)c1cc(F)ccc1-2 tested_target=HEK-293T observed_property="Growth Rate" value_measured=0
smiles_entry=OCCn1cc(-c2ccc3c(c2)CCC3=NO)c(-c2ccncc2)n1 tested_target=HEK-293T observed_property="Growth Rate" value_measured=1
smiles_entry=Cl.O=C(Cc1ccc(Cl)c(Cl)c1)N1CCCC[C@H]1CN1CCCC1 tested_target=HEK-293T observed_property="Growth Rate" value_measured=1
smiles_entry=COc1ccc(CCc2nc3cc(-c4c(C)noc4C)ccc3n2C[C@H](C)N2CCOCC2)cc1Cl tested_target=HEK-293T observed_property="Growth Rate" value_measured=1
smiles_entry=CC(/C=C1\SC(=S)N(CCCC(=O)Nc2ccc(C(=O)O)c(O)c2)C1=O)=C\c1ccccc1 tested_target=HEK-293T observed_property="Growth Rate" value_measured=1
smiles_entry=Cc1cc(OCC(=O)O)cc(C)c1Cc1ccc(O)c(C(C)C)c1 tested_target=HEK-293T observed_property="Growth Rate" value_measured=1
smiles_entry=C[C@@H](N)Cc1c[nH]cn1.Cl.Cl tested_target=HEK-293T observed_property="Growth Rate" value_measured=0

* * *

# Tested on: HEK-293T
# Run Description: Multiplex assay against HEK293T
# Format: toxicity, cell-based
# Experimental Context: human, 24 h, 10 µM, compound concentration 10 uM, replicate 1
I would appreciate it if you labelled entries satisfied when Population Healthy Nuclei (%) is 30% or higher, otherwise not satisfied.

compound=CN(c1cc(C(F)(F)F)nc(OCCC(=O)O)n1)c1cccc2c1CCC2 tested_target=HEK-293T class_label=satisfied
compound="Cl.Cn1c2c(c3ccc(Cl)c(Cl)c31)C(C#N)C1(CCNCC1)NC2=O (stereo unspecified)" tested_target=HEK-293T class_label=satisfied
compound=Cc1ccc(NC(=O)Nc2cc(C(F)(F)F)ccc2F)cc1Nc1ccc2c(c1)NC(=O)/C2=C\c1ccc[nH]1 tested_target=HEK-293T class_label=satisfied
compound="CC(C)[C@H](CO)Nc1nc(Nc2cccc(Cl)c2)c2ncn(C(C)C)c2n1 [PURVALANOLA]" tested_target=HEK-293T class_label=satisfied
compound="CC(C)C[C@H](NC(=O)[C@H](Cc1ccccc1)NC(=O)CNC(=O)CNC(=O)[C@@H](N)Cc1ccc(O)cc1)C(=O)O [ENKEPHALIN]" tested_target=HEK-293T class_label=satisfied
compound=C=CC(=O)Nc1cc(-n2c(=O)ccc3cnc4ccc(-c5ccc(NS(C)(=O)=O)cc5)cc4c32)ccc1C tested_target=HEK-293T class_label="not satisfied"
compound="CC[C@@]1(O)C(=O)OCc2c1cc1n(c2=O)Cc2cc3ccccc3nc2-1 [CAMPTOTHECIN]" tested_target=HEK-293T class_label=satisfied
compound="CCCCCNC(=N)N/N=C/c1c[nH]c2ccc(OC)cc12.O=C(O)/C=C\\C(=O)O [TEGASEROD MALEATE]" tested_target=HEK-293T class_label="not satisfied"
compound="CC(Cc1ccc(O)c(O)c1)C(C)Cc1ccc(O)c(O)c1 (stereo unspecified) [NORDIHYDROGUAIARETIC ACID]" tested_target=HEK-293T class_label=satisfied
compound=CC(C)c1cc(Nc2nc(N3CCC[C@H](N)C3)ncc2C(N)=O)cc(C(C)C)n1 tested_target=HEK-293T class_label="not satisfied"
compound=N#Cc1cccc(C(=O)Nc2cc(-c3ccccc3)nn2-c2ccccc2)c1 tested_target=HEK-293T class_label="not satisfied"

* * *

A collection of molecules and their measured Population Tubulin-Different-Phenotype (%)
# System: U2OS
# Run Description: Multiplex assay against U2OS
# Type: toxicity, cell-based
# Experimental Context: human, 12 h, 1 µM, compound concentration 1 uM, replicate 1
Observed Property: Population Tubulin-Different-Phenotype (%)

molecule=Cl.NC[C@@H]1O[C@H](C23CC4CC(CC(C4)C2)C3)Cc2c1ccc(O)c2O value_measured=6
molecule="CN1C(=O)[C@@H](NC(=O)c2cc3ccccc3[nH]2)N=C(c2ccccc2)c2ccccc21 [DEVAZEPIDE]" value_measured=21
molecule=CC[C@@H]1C(=O)N(C)c2cnc(Nc3ccc(C(=O)NC4CCN(C)CC4)cc3OC)nc2N1C1CCCC1 value_measured=35
molecule=CN(c1cc(C(F)(F)F)nc(OCCC(=O)O)n1)c1cccc2c1CCC2 value_measured=10
molecule="Cl.Cn1c2c(c3ccc(Cl)c(Cl)c31)C(C#N)C1(CCNCC1)NC2=O (stereo not given)" value_measured=19
molecule=CCCc1cc(C)[nH]c(=O)c1CNC(=O)c1cc(-c2ccc(N3CCN(C(C)C)CC3)nc2)cc2c1cnn2C(C)C value_measured=81
molecule=Cc1ccc(S(=O)(=O)NC2c3ccccc3Oc3ccccc32)cc1 value_measured=5
molecule="CC(Cc1ccc(O)c(O)c1)C(C)Cc1ccc(O)c(O)c1 (stereo not given) [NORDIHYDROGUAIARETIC ACID]" value_measured=10
molecule="CCCCCNC(=N)N/N=C/c1c[nH]c2ccc(OC)cc12.O=C(O)/C=C\\C(=O)O [TEGASEROD MALEATE]" value_measured=10
molecule=N#Cc1cccc(C(=O)Nc2cc(-c3ccccc3)nn2-c2ccccc2)c1 value_measured=13
molecule=C=CC(=O)Nc1cc(-n2c(=O)ccc3cnc4ccc(-c5ccc(NS(C)(=O)=O)cc5)cc4c32)ccc1C value_measured=6
molecule=Cc1ccc(NC(=O)Nc2cc(C(F)(F)F)ccc2F)cc1Nc1ccc2c(c1)NC(=O)/C2=C\c1ccc[nH]1 value_measured=65
molecule=CC(C)C[C@H](NC(=O)[C@H](Cc1ccccc1)NC(=O)CNC(=O)CNC(=O)[C@@H](N)Cc1ccc(O)cc1)C(=O)O value_measured=9
molecule=NC(=O)c1ccc2nc(-c3ccc(C4(N)CCC4)cc3)c(-c3ccccc3)n2n1 value_measured=46
molecule=CC(C)c1cc(Nc2nc(N3CCC[C@H](N)C3)ncc2C(N)=O)cc(C(C)C)n1 value_measured=100
molecule=CC(C)[C@H](CO)Nc1nc(Nc2cccc(Cl)c2)c2ncn(C(C)C)c2n1 value_measured=12
molecule=C[C@@H](Oc1cc(-n2cnc3ccc(CN4CCN(C)CC4)cc32)sc1C(N)=O)c1ccccc1C(F)(F)F value_measured=84
molecule=CC[C@H](Nc1ncnc2[nH]cnc12)c1nc2cccc(F)c2c(=O)n1-c1ccccc1 value_measured=34
molecule=CCCCN(CC)c1nc(C)nc2c1c(C)cn2-c1c(C)cc(C)cc1C.Cl value_measured=6
molecule=Cc1c(Nc2ccc(S(=O)(=O)N3CCN(C)CC3)cc2F)nc2ccc(Nc3cnn(C4CC4)c3)cn2c1=O value_measured=53
